B1: ADD1 (parent)
chain: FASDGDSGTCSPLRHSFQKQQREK

Variants of: B1
test-name: protein stability index of a GFP-peptide fusion (GPS, HEK-293T) (PSI 1-6); higher = more stable;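 further: lentivirally expressed fusions sorted by FACS into six bins by GFP to DsRed ratio, PSI derived from sequencing read proportions per bin multiplied by bin number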
condition-details: c terminus: a fixed tail appended
# protein stability index per entry
Reply: number alone, nothing else.

Solved cases (2 shown):
INSERT INTO measurements (variant_designation, number) VALUES
  ('G5C', 3.57),
  ('K19Y', 3.62);

Kindly review the next variant as well.
Given the entry S16K , report its measured protein stability index.
4.59
